- systemUnderTest: Recombinant human VAP-1 SSAO (Homo sapiens, UniProt Q16853)
- Construct: expressed in transfected cells; host or cells: CHO cells (clarified NP40 lysate used directly)
- Sequence (Q16853 whole entry): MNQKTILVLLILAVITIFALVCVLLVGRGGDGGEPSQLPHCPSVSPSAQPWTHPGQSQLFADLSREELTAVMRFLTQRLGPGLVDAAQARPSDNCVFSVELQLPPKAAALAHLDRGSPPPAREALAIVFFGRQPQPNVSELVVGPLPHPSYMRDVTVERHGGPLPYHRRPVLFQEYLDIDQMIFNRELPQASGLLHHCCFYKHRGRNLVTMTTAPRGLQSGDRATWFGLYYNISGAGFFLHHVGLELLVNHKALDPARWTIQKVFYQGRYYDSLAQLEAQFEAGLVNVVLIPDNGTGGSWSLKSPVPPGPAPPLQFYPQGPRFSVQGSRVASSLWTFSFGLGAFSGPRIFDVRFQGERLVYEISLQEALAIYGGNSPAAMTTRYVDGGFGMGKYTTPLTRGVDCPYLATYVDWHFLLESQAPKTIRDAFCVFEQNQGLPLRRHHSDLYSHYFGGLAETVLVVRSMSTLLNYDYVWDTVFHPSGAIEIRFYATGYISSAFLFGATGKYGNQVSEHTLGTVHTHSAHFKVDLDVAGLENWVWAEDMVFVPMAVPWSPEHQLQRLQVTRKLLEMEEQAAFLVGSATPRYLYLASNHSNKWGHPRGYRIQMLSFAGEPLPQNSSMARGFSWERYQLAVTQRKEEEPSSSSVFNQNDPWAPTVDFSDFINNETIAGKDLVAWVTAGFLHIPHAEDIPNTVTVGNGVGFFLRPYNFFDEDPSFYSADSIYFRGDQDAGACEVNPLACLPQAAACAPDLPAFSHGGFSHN
- experimentalDetails: VAP-1 SSAO activity, coupled colourimetric assay (benzylamine substrate)
- Format: biochemical
- assaySetup: ratio of total rat MAO IC50 to human VAP-1 SSAO IC50
# Selectivity for VAP-1 SSAO over MAO per record follows
Please state the value as a number alone, without comment.

Completed entries (count: 4):
>  <molecule>
COC(COc1cccc2ccccc12)CN(C)N.O=C(O)/C=C\C(=O)O (stereo not drawn)

>  <systemUnderTest>
Recombinant human VAP-1 SSAO (Homo sapiens, UniProt Q16853)

>  <Selectivity for VAP-1 SSAO over MAO>
8

$$$$
>  <molecule>
CN(N)CC(O)COc1ccc(Cl)cc1.O=C(O)/C=C/C(=O)O (stereo not drawn)

>  <systemUnderTest>
Recombinant human VAP-1 SSAO (Homo sapiens, UniProt Q16853)

>  <Selectivity for VAP-1 SSAO over MAO>
14

$$$$
>  <molecule>
CN(N)CC(O)CN(C)c1ccccc1.O=C(O)/C=C/C(=O)O (stereo not drawn)

>  <systemUnderTest>
Recombinant human VAP-1 SSAO (Homo sapiens, UniProt Q16853)

>  <Selectivity for VAP-1 SSAO over MAO>
45

$$$$
>  <molecule>
COc1ccc(OCC(O)CNNc2ccccc2)cc1.Cl (stereo not drawn)

>  <systemUnderTest>
Recombinant human VAP-1 SSAO (Homo sapiens, UniProt Q16853)

>  <Selectivity for VAP-1 SSAO over MAO>
37

$$$$

For Cc1ccc(OCC(O)CN(C)N)cc1.O=C(O)/C=C/C(=O)O (stereo not drawn) , what is its reported Selectivity for VAP-1 SSAO over MAO? 23

Follow-up entry: COC(COc1ccc(C)cc1)CN(C)N.O=C(O)/C=C/C(=O)O (stereo not drawn) 14

Follow-up entry: COC(COc1ccc(Cl)cc1)CN(C)N.O=C(O)/C=C/C(=O)O (stereo not drawn) 13

Follow-up entry: Cc1ccccc1OCC(O)CN(C)N.O=C(O)/C=C/C(=O)O (stereo not drawn) 17

Follow-up entry: COC(CSc1ccccc1)CN(C)N.O=C(O)/C=C/C(=O)O (stereo not drawn) 9

Follow-up entry: CN(N)CC(O)COc1cccc2ccccc12.O=C(O)/C=C\C(=O)O (stereo not drawn) 15

Follow-up entry: CN(N)CC(O)COc1ccc2ccccc2c1.O=C(O)/C=C/C(=O)O (stereo not drawn) 11

Follow-up entry: COc1ccc(OCC(O)CN(C)N)cc1.O=C(O)/C=C\C(=O)O (stereo not drawn) 21

Follow-up entry: CN(N)CC(O)COc1ccccc1.O=C(O)/C=C\C(=O)O (stereo not drawn) 35

====

# IC50 per record follows
- systemUnderTest: Recombinant human VAP-1 SSAO (Homo sapiens, UniProt Q16853)
- experimentalDetails: VAP-1 SSAO activity, coupled colourimetric assay (benzylamine substrate)
- assaySetup: CHO cell lysate with recombinant human VAP-1 SSAO, 1 mM benzylamine, 1 h at 37° C.; read-out: VAP-1 SSAO inhibitory activity IC50
All answers are understood in nM, so give the number only.

Completed entries (count: 2):
>  <compound>
COc1ccc(OCC(O)CNNc2ccccc2)cc1.Cl (stereo not shown)

>  <systemUnderTest>
Recombinant human VAP-1 SSAO (Homo sapiens, UniProt Q16853)

>  <IC50 (nM)>
90

$$$$
>  <compound>
CN(N)CC(O)COc1cccc2ccccc12.O=C(O)/C=C\C(=O)O (stereo not shown)

>  <systemUnderTest>
Recombinant human VAP-1 SSAO (Homo sapiens, UniProt Q16853)

>  <IC50 (nM)>
650

$$$$

For COC(COc1ccc2ccccc2c1)CN(C)N.O=C(O)/C=C/C(=O)O (stereo not shown) , what is its reported IC50? 640

Follow-up entry: COc1cccc(OCC(O)CN(C)N)c1.O=C(O)/C=C/C(=O)O (stereo not shown) 330
